Experimental Target: Yer184c (UniProt P39961)
Sequence: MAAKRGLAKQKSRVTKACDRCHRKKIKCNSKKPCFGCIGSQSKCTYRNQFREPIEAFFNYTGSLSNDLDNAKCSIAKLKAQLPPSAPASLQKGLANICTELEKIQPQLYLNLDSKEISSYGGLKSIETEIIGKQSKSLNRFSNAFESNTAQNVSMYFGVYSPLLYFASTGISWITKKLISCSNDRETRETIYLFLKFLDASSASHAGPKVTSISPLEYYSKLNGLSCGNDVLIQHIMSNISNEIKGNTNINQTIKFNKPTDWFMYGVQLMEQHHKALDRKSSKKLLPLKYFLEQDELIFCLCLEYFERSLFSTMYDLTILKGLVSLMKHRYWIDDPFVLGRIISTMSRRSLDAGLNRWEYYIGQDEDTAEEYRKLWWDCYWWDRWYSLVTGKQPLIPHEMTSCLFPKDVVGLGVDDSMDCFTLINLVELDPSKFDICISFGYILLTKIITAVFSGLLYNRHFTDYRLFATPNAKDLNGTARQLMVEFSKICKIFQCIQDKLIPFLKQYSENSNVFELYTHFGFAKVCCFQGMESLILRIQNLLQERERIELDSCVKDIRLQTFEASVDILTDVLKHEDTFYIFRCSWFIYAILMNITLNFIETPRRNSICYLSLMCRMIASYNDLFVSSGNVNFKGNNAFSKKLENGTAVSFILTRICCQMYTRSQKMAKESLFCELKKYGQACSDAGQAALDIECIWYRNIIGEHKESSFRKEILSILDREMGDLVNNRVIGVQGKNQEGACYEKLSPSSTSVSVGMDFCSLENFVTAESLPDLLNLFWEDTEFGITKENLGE
Experiment Description: PBM E-score (8-mer binding enrichment) (E-score (-0.5 to 0.5)); higher = stronger / more preferred TF binding
Condition Info: protein concentration: 100 nM; construct: GST-full length
Over roughly 33,000 sequences, “E-score (-0.5 to 0.5)” has its median near -0.016; the highest 2% begin near 0.3. What follows is part of a selection rich in the highest values, with near analogues and random picks from the rest.
Class boundaries, taken from values of PBM E-score, are as follows: lower level = under 0.03, middle level = from 0.03 up to 0.2, upper level = 0.2 and over

INPUT: Hi there! Could you help me figure out the category for CGAACACC please?
OUTPUT: lower level

INPUT: Just checking, what class would you give ATGCGTGA here?
OUTPUT: lower level

INPUT: Record CTCCGTAA — which class?
OUTPUT: middle level

INPUT: Consider ATCCGGAG . To which PBM E-score class does it belong?
OUTPUT: upper level

INPUT: Exercise: read the entry AGTACTAG and state which class it falls under.
OUTPUT: middle level

INPUT: State the class of the sequence shown: CTCCGGAG
OUTPUT: upper level

INPUT: Tag the class for CTACGGAG
OUTPUT: middle level

INPUT: Just checking, what class would you give CGGCCACA here?
OUTPUT: middle level

INPUT: Assign a category based on measured PBM E-score for CTATATAG and give only the class name.
OUTPUT: lower level

INPUT: Please report the category associated with CTTTATAA , nothing else.
OUTPUT: middle level

INPUT: Please let me know in which category the item ATTTATAC belongs.
OUTPUT: upper level

INPUT: Category of CCAGGGTA , please.
OUTPUT: lower level

INPUT: Category of ATGTGAGG , please.
OUTPUT: middle level

INPUT: Which category fits this record: ATATATTG
OUTPUT: middle level

INPUT: The entry to classify is ACGGCAGG ; which class holds it?
OUTPUT: lower level

INPUT: Hi, small favor: classify ATCCGGGG by its PBM E-score when you get a moment.
OUTPUT: upper level

INPUT: Which class is correct for the following sequence? AACGAAGT
OUTPUT: lower level

INPUT: Pick a category. Item: CTCCGGTA
OUTPUT: upper level

INPUT: Class for TCGGTTCA ?
OUTPUT: middle level

INPUT: Please indicate the class for ATACTCGA based on its PBM E-score.
OUTPUT: lower level

INPUT: Band for the recorded PBM E-score of GTCCGGAA ?
OUTPUT: upper level

====

Experimental Target: Yer184c (UniProt P39961)
Sequence: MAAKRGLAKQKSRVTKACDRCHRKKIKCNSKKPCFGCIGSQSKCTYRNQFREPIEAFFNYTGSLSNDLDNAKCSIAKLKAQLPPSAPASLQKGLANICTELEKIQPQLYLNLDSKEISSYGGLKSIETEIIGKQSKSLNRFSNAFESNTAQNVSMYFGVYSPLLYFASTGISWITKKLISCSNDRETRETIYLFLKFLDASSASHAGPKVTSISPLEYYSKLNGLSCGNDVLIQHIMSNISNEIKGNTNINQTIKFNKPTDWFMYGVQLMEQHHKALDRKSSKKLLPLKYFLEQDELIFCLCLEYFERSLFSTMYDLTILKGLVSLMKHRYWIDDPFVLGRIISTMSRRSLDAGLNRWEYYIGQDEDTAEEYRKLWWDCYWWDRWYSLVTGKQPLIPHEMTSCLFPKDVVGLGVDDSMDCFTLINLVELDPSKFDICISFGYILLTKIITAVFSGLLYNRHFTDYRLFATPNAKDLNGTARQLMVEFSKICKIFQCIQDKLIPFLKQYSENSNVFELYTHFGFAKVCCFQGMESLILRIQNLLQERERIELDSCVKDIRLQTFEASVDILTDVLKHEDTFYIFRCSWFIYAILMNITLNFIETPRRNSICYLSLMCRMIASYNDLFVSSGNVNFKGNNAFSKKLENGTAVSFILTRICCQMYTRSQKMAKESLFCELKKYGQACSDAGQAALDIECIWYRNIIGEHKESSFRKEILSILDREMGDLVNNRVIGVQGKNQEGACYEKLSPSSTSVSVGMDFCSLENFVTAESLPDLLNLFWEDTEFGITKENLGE
Experiment Description: PBM E-score (8-mer binding enrichment) (E-score (-0.5 to 0.5)); higher = stronger / more preferred TF binding
Condition Info: protein concentration: 100 nM; construct: GST-full length
Over roughly 33,000 sequences, “E-score (-0.5 to 0.5)” has its median near -0.016; the highest 2% begin near 0.3. Shown is part of a subset that was picked to be rich in the highest values.
Measurement Kind: PBM E-score

INPUT: Notebook: pull reported PBM E-score for Yer184c (UniProt P39961), entry CTGGATTC
OUTPUT: 0.00297

INPUT: # value lookup — system Yer184c (UniProt P39961), readout PBM E-score, item CGTCCGAA
OUTPUT: 0.239

INPUT: Please provide the recorded PBM E-score for CCGGAGTC , tested on Yer184c (UniProt P39961).
OUTPUT: 0.235

INPUT: API: value(readout=PBM E-score, system=Yer184c (UniProt P39961)) for record CGGGACCG
OUTPUT: 0.31

INPUT: Requested read-out PBM E-score, target or system Yer184c (UniProt P39961), entry CGTATTGC
OUTPUT: 0.0559

INPUT: Request body: readout PBM E-score, system Yer184c (UniProt P39961), query AACAAGAC . Return the value.
OUTPUT: 0.105

INPUT: API: value(readout=PBM E-score, system=Yer184c (UniProt P39961)) for record ACGGGTTC
OUTPUT: 0.0138

INPUT: Request: PBM E-score, test system Yer184c (UniProt P39961), entry GCCGTTAC
OUTPUT: 0.119

INPUT: Enter reported PBM E-score observed with Yer184c (UniProt P39961) for CGTCCCGA
OUTPUT: 0.0521

INPUT: Missing value: PBM E-score, Yer184c (UniProt P39961), entry ACTTCCAG . Fill in?
OUTPUT: -0.112

INPUT: API: value(readout=PBM E-score, system=Yer184c (UniProt P39961)) for record CCGGACCA
OUTPUT: 0.297

INPUT: For Yer184c (UniProt P39961), provide PBM E-score of TGTCCAAA please.
OUTPUT: 0.143

INPUT: Report PBM E-score for TTCAAAAA tested on Yer184c (UniProt P39961).
OUTPUT: 0.228

INPUT: Record GTACCGGA : what is its PBM E-score with Yer184c (UniProt P39961)?
OUTPUT: 0.285

INPUT: # value lookup — system Yer184c (UniProt P39961), readout PBM E-score, item CCGGGTAA
OUTPUT: 0.348

INPUT: Form entry - test system: Yer184c (UniProt P39961); read-out: PBM E-score; sequence: AGGTAAAG
OUTPUT: 0.106

INPUT: Missing value: PBM E-score, Yer184c (UniProt P39961), entry ACCGTTGG . Fill in?
OUTPUT: -0.244

INPUT: Notebook: pull reported PBM E-score for Yer184c (UniProt P39961), entry CCGGACAG
OUTPUT: 0.324

INPUT: Give Yer184c (UniProt P39961) PBM E-score for AGTCCGAC
OUTPUT: -0.14

INPUT: Please tell me: PBM E-score of GCAAGGGC , system Yer184c (UniProt P39961)?
OUTPUT: -0.274

INPUT: Fill in the recorded PBM E-score for this sequence, with Yer184c (UniProt P39961) as test system: CTTCCGCA
OUTPUT: 0.068

INPUT: Lookup: PBM E-score / Yer184c (UniProt P39961) / TGATAAAA
OUTPUT: 0.178

INPUT: Missing value: PBM E-score, Yer184c (UniProt P39961), entry AATCCTCA . Fill in?
OUTPUT: -0.0565

INPUT: Given the entry CTAGGCAC , what PBM E-score was observed with Yer184c (UniProt P39961)?
OUTPUT: -0.14

INPUT: What reported PBM E-score corresponds to ACGAATTC on Yer184c (UniProt P39961)?
OUTPUT: 0.113

INPUT: # get_value(readout= PBM E-score, system= Yer184c (UniProt P39961)) for ACAGACGG
OUTPUT: -0.11

INPUT: Could you share what PBM E-score was measured for CGGTAAAA , tested on Yer184c (UniProt P39961)?
OUTPUT: 0.305

INPUT: Fill in the recorded PBM E-score for this sequence, with Yer184c (UniProt P39961) as test system: ATTCCGGA
OUTPUT: 0.436

INPUT: Tell me reported PBM E-score for AGCTTTCG , tested with Yer184c (UniProt P39961).
OUTPUT: 0.105

INPUT: Which measured PBM E-score belongs to CCGGATTC , tested on Yer184c (UniProt P39961)?
OUTPUT: 0.33

INPUT: Record CTTCCCGA : what is its PBM E-score with Yer184c (UniProt P39961)?
OUTPUT: 0.148

INPUT: Record lookup: for Yer184c (UniProt P39961), what PBM E-score belongs to ACGGATTC ?
OUTPUT: 0.197

INPUT: Test system Yer184c (UniProt P39961); read-out PBM E-score; what value for CCGGACAA ?
OUTPUT: 0.29

INPUT: What is its PBM E-score for Yer184c (UniProt P39961)? Entry: GTTCCGGA
OUTPUT: 0.438

INPUT: Lookup: PBM E-score / Yer184c (UniProt P39961) / CCGAATTA
OUTPUT: 0.231

INPUT: Fill in the recorded PBM E-score for this sequence, with Yer184c (UniProt P39961) as test system: ACGGACCA
OUTPUT: 0.327

INPUT: Value wanted: PBM E-score (Yer184c (UniProt P39961)) of entry CCGGAGTA
OUTPUT: 0.381

INPUT: Can you look up PBM E-score on Yer184c (UniProt P39961) for CTTCCGGC ?
OUTPUT: 0.343

INPUT: Under Yer184c (UniProt P39961): PBM E-score value of ACGGATTA ?
OUTPUT: 0.183

INPUT: What PBM E-score appears in the records for this sequence with Yer184c (UniProt P39961)? AGTCCGAA
OUTPUT: 0.343

INPUT: Form: Entry = CGGTAAAG | System = Yer184c (UniProt P39961) | PBM E-score = ____
OUTPUT: 0.314

INPUT: Provide the documented PBM E-score with Yer184c (UniProt P39961) as the system for AGGGACCG
OUTPUT: -0.165

INPUT: Short answer please: PBM E-score, Yer184c (UniProt P39961), entry ATATAAAA
OUTPUT: 0.278

INPUT: Any idea what PBM E-score came out for TTCAAGAA on Yer184c (UniProt P39961)?
OUTPUT: 0.312

INPUT: Form field: PBM E-score recorded for ACAGCGGA with Yer184c (UniProt P39961) (enter value)
OUTPUT: 0.0362

INPUT: Request: PBM E-score, test system Yer184c (UniProt P39961), entry GCGGAGTA
OUTPUT: 0.0105

Source: the supplement of paper PMC3334620
